These entries and their values trace back to patent US9790189B2.

- Test system: MOLM-13 cells
- ASSAY REMARKS: Proliferation assay, MOLM-13 (Cell Titre-Glo)
- Format: cell-based
- ASSAY CONDITIONS: Homo sapiens; MOLM-13, 72-hour exposure; read-out: Inhibition of MOLM-13 cell proliferation IC50
REPORTED METRIC: IC50 (nM)

[a] CS(=N)(=N)Cc1cc(Nc2ncc(F)c(-c3ccc(F)cc3F)n2)cc(S(F)(F)(F)(F)F)c1
[b] COc1cc(F)ccc1-c1nc(Nc2cc(CS(C)(=N)=N)cc(S(F)(F)(F)(F)F)c2)ncc1F
stdin: Which is greater in IC50, the first item a or the second item b ? Lab note: record the label of whichever item you select.
stdout: a
(a: 244 nM, b: 36 nM)
